Assay: Fluorescence spectrum and fluorescence quantum yield of CTMD analogs at 750 nM (Example 1)
Format: physicochemical
Conditions: fluorescence emission, methanol, 750 nM, 25° C., excited at 330 nm
Measurement name: λmax (MeOH)/nm (nm)

{"Compound": "COc1ccc(-c2cnc(NC(=O)Cc3ccccc3)c(Cc3ccccc3)n2)cc1", "λmax (MeOH)/nm [nm]": 415}
{"Compound": "CC(=O)Nc1ncc(-c2ccc(O)cc2)nc1Cc1ccccc1", "λmax (MeOH)/nm [nm]": 425.5}
{"Compound": "COc1ccc(-c2cnc(NC(=S)Cc3ccccc3)c(Cc3ccccc3)n2)cc1", "λmax (MeOH)/nm [nm]": 417.5}
{"Compound": "CC(=O)Oc1ccc(-c2cnc(NC(=O)Cc3ccccc3)c(Cc3ccccc3)n2)cc1", "λmax (MeOH)/nm [nm]": 373.5}
{"Compound": "CC(=O)Oc1ccc(-c2cnc(N(S(C)(=O)=O)S(C)(=O)=O)c(Cc3ccccc3)n2)cc1", "λmax (MeOH)/nm [nm]": 381.5}
{"Compound": "CC(=O)Oc1ccc(-c2cnc(N(S(=O)(=O)Cc3ccccc3)S(=O)(=O)Cc3ccccc3)c(Cc3ccccc3)n2)cc1", "λmax (MeOH)/nm [nm]": 399.5}
{"Compound": "O=C(Cc1ccc(O)cc1)Nc1ncc(-c2ccc(O)cc2)nc1Cc1ccccc1 [c-4, reference compound]", "λmax (MeOH)/nm [nm]": 427.5}
{"Compound": "CC(=O)Oc1ccc(-c2cnc(NS(=O)(=O)Cc3ccccc3)c(Cc3ccccc3)n2)cc1", "λmax (MeOH)/nm [nm]": 404}
